TEST_DESCRIPTION: in vivo
Design: species or system rats
CONDITION_SUMMARY: rat, po, female rats, p.o., read-out: acute toxicity (p.o.) on female rats
EXPERIMENTAL_ENDPOINT: LD50 (mg/kg)
Reply with just the number (in mg/kg).

Input: What value of LD50 has been reported for the following molecule? "CN(CN1CCOCC1)C(=O)Oc1cccc2c1OC(C)(C)C2"
Output: 50

Input: Form field: reported LD50 of "CCOC(=O)CCN(CN(C)C(=O)Oc1cccc2c1OC(C)(C)C2)C(C)C"
Output: 31.8

* * *

System: bean beetle (Acanthoscalides obtectus)
TEST_DESCRIPTION: Pesticidal effect on bean beetle, treated filter paper discs (Example 15, Table I)
Type: in vivo
CONDITION_SUMMARY: concentration of active ingredient 0.04%; 24 hours; killed and paralysed
Would you mind telling me the reported mortality % of each entry?
Unit % implied. Number only.

Input: Sample CCOC(=O)CCN(CN(C)C(=O)Oc1cccc2c1OC(C)(C)C2)C(C)C [Example 3] — what was its mortality %?
Output: 53

Input: # get_value(readout='mortality %', item= COc1ccc(CCNCN(C)C(=O)Oc2cccc3c2OC(C)(C)C3)cc1OC [Example 4] )
Output: 70

Input: Please look up its mortality %: CNC(=O)Oc1ccccc1C1OCCO1 [Dioxacarb, reference compound]
Output: 43

Input: Which mortality % is listed for CN(CN1CCOCC1)C(=O)Oc1cccc2c1OC(C)(C)C2 [Example 1] ?
Output: 87

Input: Any idea what mortality % was measured for CC(C)NCN(C)C(=O)Oc1cccc2c1OC(C)(C)C2 [Example 2] ?
Output: 60

Input: # query: mortality % of entry CNC(=O)Oc1cccc2c1OC(C)(C)C2 [Carbofuran, reference compound]
Output: 100

* * *

System: house fly (Musca domestica)
TEST_DESCRIPTION: Insecticidal activity on house fly, treated filter paper discs (Example 16, Table II)
Format: in vivo
CONDITION_SUMMARY: 24 h
Hi there, I'd appreciate the recorded mortality at 0.04 % for every entry that follows.
Your answer is read as %, so omit the unit and give the number.

Input: Please report the recorded mortality at 0.04 % for CN(CN1CCOCC1)C(=O)Oc1cccc2c1OC(C)(C)C2 [Example 1] .
Output: 43

Input: Recorded mortality at 0.04 % for CC(C)NCN(C)C(=O)Oc1cccc2c1OC(C)(C)C2 [Example 2] , please?
Output: 30

Input: For COc1ccc(CCNCN(C)C(=O)Oc2cccc3c2OC(C)(C)C3)cc1OC [Example 4] , what is its reported mortality at 0.04 %?
Output: 37

Input: // mortality at 0.04 % lookup, key: CNC(=O)Oc1ccccc1C1OCCO1 [Dioxacarb, reference compound]
Output: 17

Input: // mortality at 0.04 % lookup, key: CCOC(=O)CCN(CN(C)C(=O)Oc1cccc2c1OC(C)(C)C2)C(C)C [Example 3]
Output: 40

* * *

Tested on: bean beetle (Acanthoscalides obtectus)
TEST_DESCRIPTION: Pesticidal effect on bean beetle, treated filter paper discs (Example 15, Table I)
Assay type: in vivo
CONDITION_SUMMARY: concentration of active ingredient 0.008%; 24 hours; killed and paralysed
EXPERIMENTAL_ENDPOINT: mortality % (%)
// units = %; emit number, no label

Input: Quick one: mortality % for CNC(=O)Oc1cccc2c1OC(C)(C)C2 [Carbofuran, reference compound] ?
Output: 93

Input: # input compound: "CN(CN1CCOCC1)C(=O)Oc1cccc2c1OC(C)(C)C2" ; wanted: its mortality %
Output: 50

Input: Data request, read-out mortality %, for "CC(C)NCN(C)C(=O)Oc1cccc2c1OC(C)(C)C2"
Output: 40

Input: Any idea what mortality % was measured for "CCOC(=O)CCN(CN(C)C(=O)Oc1cccc2c1OC(C)(C)C2)C(C)C" ?
Output: 27

Input: Need mortality % of CNC(=O)Oc1ccccc1C1OCCO1 [Dioxacarb, reference compound] , thanks.
Output: 30

Input: Look up mortality % for this compound: "COc1ccc(CCNCN(C)C(=O)Oc2cccc3c2OC(C)(C)C3)cc1OC"
Output: 37

* * *

TEST_DESCRIPTION: in vivo
Set-up: species or system rats
CONDITION_SUMMARY: rat, po, acute toxicity (p.o.) on male rats
EXPERIMENTAL_ENDPOINT: LD50

Input: Query: LD50; subject: CNC(=O)Oc1cccc2c1OC(C)(C)C2 [Carbofuran, reference compound]
Output: 8 to 14 mg/kg

* * *

For each of the compounds below, state its mortality %.
System: bean beetle (Acanthoscalides obtectus)
TEST_DESCRIPTION: Pesticidal effect on bean beetle, treated filter paper discs (Example 15, Table I)
Format: in vivo
CONDITION_SUMMARY: concentration of active ingredient 1%; 24 hours; killed and paralysed
Please reply with the bare figure in % and do not write the unit itself.

Input: # lookup: mortality % of CNC(=O)Oc1ccccc1C1OCCO1 [Dioxacarb, reference compound]
Output: 100

Input: What does the record list as mortality % for "COc1ccc(CCNCN(C)C(=O)Oc2cccc3c2OC(C)(C)C3)cc1OC" ?
Output: 100

Input: Returns the measured mortality % for the input compound. Input: CNC(=O)Oc1cccc2c1OC(C)(C)C2 [Carbofuran, reference compound]
Output: 100

Input: Field request: mortality % | item: "CN(CN1CCOCC1)C(=O)Oc1cccc2c1OC(C)(C)C2"
Output: 100

Input: May I ask what mortality % has been recorded for "CCOC(=O)CCN(CN(C)C(=O)Oc1cccc2c1OC(C)(C)C2)C(C)C" ?
Output: 97

Input: Consider the compound "CC(C)NCN(C)C(=O)Oc1cccc2c1OC(C)(C)C2" and give its measured mortality %.
Output: 100
